Hey, just so you know, these numbers are from patent US20060235215A1.

Biological target: T1, O. sativa Chilling-Inducible Protein CAA90866, bait clone aa 100-250 (Oryza sativa)
T1 construct: bait; also called OsCAA90866; PN20311
T1 chain: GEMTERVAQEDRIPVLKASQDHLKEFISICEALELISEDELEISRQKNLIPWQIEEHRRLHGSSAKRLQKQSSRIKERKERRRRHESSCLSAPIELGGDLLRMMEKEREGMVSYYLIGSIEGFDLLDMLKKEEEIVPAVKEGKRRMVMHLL
Test: yeast two-hybrid
test-readout: binding result

Look over these answered cases.
- binder: "O. sativa Putative Pyrrolidone Carboxyl Peptidase, prey clone aa 92-222 (other, prey; AD fusion; input trait library; two clones; also called OsAAG46136; PN23186) FGVNSGTTRFALENQAINEATFRCPDELGWKPQRAPIVSSDGSISNLRKTTVPVNEVNKSLQQMGFDVAPSDDAGRFVCNYVYYQSLRFAEQRGIKSLFVHFPLFTTISEEVQMNFVATLLEVLASQNYAQ"
  test-readout: "binding result"
  result: "binds"
- binder: "Hypothetical Protein ORF020300-2233.2, Putative PP2A Regulatory Subunit, Similar to OsCAA90866, prey clone aa 1-206 (other, prey; AD fusion; output trait library; three clones; also called OsORF020300-2233.2) MVEVEEVSNKMQAQMRLHPAAAAEEEDADLPLPALFDKASHLHSLASSSSLDQEGIRKGVDLLRRCDEMVSKLGLFSSNETKDDVSTANLKYLLVPYYLGEMTERVAQEDRIPVLKASQDHLKEFISICEALELISEDELELSRQKQPDTMANRRAQKAARFKRQKAAETKLLEIKERKERRRRSLRAAALSAPIEAGEEDAFEDD"
  test-readout: "binding result"
  result: "binds"
- binder: "ILSKLVQAKELLKEYVEREKKKREERSETPKSNEAVTKFDGSLNSMRH (other, prey; AD fusion; input trait library; two clones; also called OsPN23045) [Novel Protein PN23045, prey clone aa 240-287]"
  test-readout: "binding result"
  result: "binds"
- binder: "Novel Protein PN29883, Fragment, prey clone aa 58-175 (other, prey; AD fusion; output trait library; also called OsPN29883) YGQLKAAQPFFLLAGPNVIESEEHVLKMAKHIKGITTKLGLPLVFKSSFDKANRTSSKSFRGPGLEEGLKILEKVKATYDIPVVTDVHESHQCEAAGRVADIIQIPAFFCRQTDLLVA"
  test-readout: "binding result"
  result: "binds"

[in] Entry O. sativa Chilling-Inducible Protein CAA90866, prey clone aa 1-126 (other, prey; AD fusion; output trait library; also called OsCAA90866; PN20311) MVEVEEVSNKMQVQMRLHPAAAAEEEDADLPLPALFDKASHLHSLASSSSLDQEGIRKGVDLLRRCDEMVSKVGLFSSNETKDDISTANLKYLLVPYYLGEMTERVAQEDRIPVLKASQDHLKEFI has what binding result?
[out] binds

[in] Entry Novel Protein PN23225, Similar to Triticum aestivum Initiation Factor (iso)4f p82 Subunit, prey clone aa 639-792 (other, prey; AD fusion; input trait library; also called OsPN23225) FGIRILDEAQQCIEELQCPEYYSEIVKEAINLALDKGPNFIDPLVRLLEHLHTKKIFKTEDLKTGCLLYAALLEDIGIDLPLAPALFGEVVARLSLSCSLSFEVVEEILKAVEDTYFRKGIFDAVMKTMGGNSSGQAILSSHAVVIDACNKLLK has what binding result?
[out] binds

[in] Entry Hypothetical Protein ORF020300-2233.2, Putative PP2A Regulatory Subunit, Similar to OsCAA90866, prey clone aa 1-190 (other, prey; AD fusion; output trait library; three clones; also called OsORF020300-2233.2) MVEVEEVSNKMQAQMRLHPAAAAEEEDADLPLPALFDKASHLHSLASSSSLDQEGIRKGVDLLRRCDEMVSKLGLFSSNETKDDVSTANLKYLLVPYYLGEMTERVAQEDRIPVLKASQDHLKEFISICEALELISEDELELSRQKQPDTMANRRAQKAARFKRQKAAETKLLEIKERKERRRRSLRAAA has what binding result?
[out] binds
